Source of measurements: patent US20260262643A1

Test system: blackgrass
procedure.text: Test A postemergence
Format: in vivo, Alopecurus myosuroides
recorded.conditions: 500 g ai/ha, postemergence, 10 days, visual injury, 0 to 100 scale (0 no effect, 100 complete control)
# key: entry, value: Plant response rating, Blackgrass
Reply briefly: the number, and no unit.

Past entries and their recorded results:
Query: Give blackgrass Plant response rating, Blackgrass for CC(C)c1ncn(-c2cc(C(=O)N3C[C@H](C)Oc4c(Cl)cccc43)c3ccccc3c2)n1
Result: 70

Query: Find the measured Plant response rating, Blackgrass: item C[C@H]1CN(C(=O)c2cc(Br)cc(-n3cncn3)c2)c2cccc(Cl)c2O1 , target or system blackgrass.
Result: 90

Query: Return Plant response rating, Blackgrass measured with blackgrass given this compound: CCc1ncn(-c2ccc(C)c(C(=O)N3C[C@H](C)Oc4c(C)cccc43)c2)n1
Result: 90

Query: # get_value(readout= Plant response rating, Blackgrass, system= blackgrass) for CCc1ccc(-n2cnc(C3CCC3)n2)cc1C(=O)N1C[C@H](C)Oc2c(Cl)cccc21
Result: 50

Others:
Query: I'm curious: which Plant response rating, Blackgrass was measured for CC(C)Oc1ccc(-n2cnc(C(C)C)n2)cc1C(=O)N1C[C@H](C)Oc2c(Cl)cccc21 tested on blackgrass?
Result: 30

Query: Quick check: Plant response rating, Blackgrass on blackgrass, item C=CCOc1ccc(-n2cnc(C(C)C)n2)cc1C(=O)N1C[C@H](C)Oc2c(Cl)cccc21 ?
Result: 50
